Provenance of the data: a melting point compilation (Tetko et al.; mined from patent text by program, amines drawn as free bases though some values may be those of a salt)

Observed Property: melting point

>>> result("Cc1ccc(N2C(=O)C(O)=C(C(=O)c3ccc(OC(F)(F)F)cc3)C2c2ccc(Cn3cncn3)cc2)nn1 (stereo unspecified)")
"224 °C"
>>> result("CC=CCn1c(N(C(C)=O)c2cc(C)cc(C)c2)c(CC)c(=O)[nH]c1=O")
"218 to 220 °C"
>>> result("COc1ccc(N2Cc3cnc(Nc4ccccc4)nc3N([C@@H](C)CO)C2=O)cc1")
"140 to 147 °C"
>>> result("CCn1nc2c(N)nc3ccccc3c2c1CC1(O)CCN(C(C)=O)CC1")
"231 to 232 °C"
>>> result("O=C1Nc2ccncc2N2CCNCC12 (stereo unspecified)")
"303 to 306 °C"

// each compound listed below needs its melting point
1. O=C(Nc1cccc2c1C(=O)c1c-2n[nH]c1C1CCN(C(=O)N2CCNCC2)CC1)NN1CCOCC1
2. Cc1cc2c3c(cc(C)c2[nH]c1=O)C(C)C(C(C)N)O3 (stereo unspecified)
3. Cc1cccc(-c2ccccc2NC(=N)N(C)C)c1
4. CN(C)c1nc(C(=O)NCCO[N+](=O)[O-])cs1

Response:
1. 195 to 197 °C
2. 195 to 207 °C
3. 116 °C
4. 94 to 95 °C

Value sought for every listed compound: melting point.
1. COc1ccc(CSc2nnc(CCl)s2)cc1
2. CC(C(=O)O)c1cc(CC(=O)O)c(-c2ccccc2)s1 (stereo unspecified)
3. CC(C)n1cc(C(=O)Nc2nccs2)c2ccc(S(C)(=O)=O)cc21
4. COCN1C(C)=C(C(=O)OCOC(=O)C(C)(C)C)C(c2ccccc2C(F)(F)F)C(C(=O)OCOC(=O)C(C)(C)C)=C1C

Response:
1. 60.5 to 63.5 °C
2. 145 to 146 °C
3. 247 to 249 °C
4. 96 to 97 °C

List melting point for every entry below, keeping the order given.
1. CCCCNC1=NS(=O)(=O)c2ccc(Cl)cc2N1
2. C[C@@H](n1cccn1)[C@](O)(Cn1ccnc1)c1ccc(F)cc1F
3. O=C(NCC12CC3CC(CC(C3)C1)C2)c1cccc([N+](=O)[O-])c1Cl

Response:
["267 to 269 °C", "142 to 143 °C", "185 °C"]

Batch: melting point for all items listed.
1. COc1cc2nc(N3CCOCC3)n3cnnc3c2cc1OC
2. CCCc1cc2c(=O)n3cc(C#N)ccc3nc2s1
3. NC(=O)N1CC(Oc2ccc(Cl)cc2Cl)C1

Response:
1. 216 to 218 °C
2. 217 to 218 °C
3. 169 to 170 °C

Parameter requested: melting point. Apply to each item below.
1. O=C(O)c1ccc(CO[N+](=O)[O-])cc1
2. C=CCONC(=O)c1nc(-c2ccc(Cl)c(OC)c2F)nc(N)c1OC

Response:
1. 159 to 161 °C
2. 148 to 150 °C

====

Assign melting point to each entry below.

The following compounds have reported results that may help.
>>> result("CC1(N)CN(c2c(F)cc3c(=O)c(C(=O)O)cn(-c4nc(N)c(F)cc4F)c3c2Cl)C1")
"280 °C"
>>> result("COc1ccc(S(=O)(=O)N2c3ccccc3-c3ccccc3C2C(C)(C)C)cc1 (stereo not given)")
"156 to 158 °C"
>>> result("CCCCCCCCCCCCCCCC(=O)OCC(CO)OC(=O)CCCCCCCCCCCCCCC (stereo not given)")
"67 to 68 °C"
>>> result("CNC(=O)N(C)C1c2ccccc2Oc2ccccc21")
"173 to 174 °C"
>>> result("CCn1nc(C#N)c(=O)c2ccccc21")
"216 to 218 °C"
>>> result("CC(=N)NS(=O)(=O)C=Cc1ccccc1[N+](=O)[O-]")
"175 to 178 °C"
>>> result("CN(c1ccc(Cl)cc1)c1nc(=O)c2ccc(-c3ccccc3)nc2s1")
"279 to 280 °C"
>>> result("O=CN1CCCN(C2=Nc3cc(Cl)ccc3Nc3ccccc32)CC1")
"152 to 155 °C"
>>> result("CCCOC1CCC2C3CCC4=CC(=O)CCC4C3CCC12CC (stereo not given)")
"83 to 84 °C"

Continue with the compound presented below.
Query: # get_value(readout='melting point', item= COc1cc(OC)nc(C(C#N)c2ccccc2[N+](=O)[O-])n1 (stereo not given) )
Response: 88 to 89 °C

====

Exercise: state measured melting point for each of the molecules provided.

>>> result("CCCCCCCCCCCC(=O)N1CCN(CCO)CC1")
"38 to 40 °C"
>>> result("CCOC(=O)C(C(=O)OCC)c1csc(N)n1")
"99.5 to 100 °C"
>>> result("O=C(O)CCc1ccc(C(=O)CCl)cc1")
"151 to 153 °C"
>>> result("Cc1ccccc1Nc1c(C(=O)C(C)C)cnc2c(OCCO)cccc12")
"138 to 140 °C"
>>> result("COC(CNc1nc(-c2ccccc2)c2cc(Cl)ccc2n1)OC")
"122 to 123 °C"

Provide melting point for all items below, preserving their order.
1. CC1CCCC2C1N2CC(O)Cn1ccnc1[N+](=O)[O-] (stereo unspecified)
2. OCCC(=C(c1ccccc1)c1ccccc1)c1ccccc1
3. CCOc1cc2ncc(C#N)c(Nc3cccc(C(C)=O)c3)c2cc1OCC
4. CCCCCCCCCCCCCCOc1ccc(C(=O)Nc2cccc(CO)c2)cc1
5. c1ccc(COc2ccc(CCCCn3ccnc3)cc2)cc1
6. CCS(=O)c1ccc(Oc2ccc(Cl)c(Cl)c2)nc1C#N (stereo unspecified)

Response:
124 °C
117 to 119 °C
191 to 194 °C
112 to 115 °C
97 to 98 °C
138 to 144 °C

====

For each record, write down the corresponding melting point.

Example entries begin here.
>>> result("CSC(=C[N+](=O)[O-])NCCSCc1csc(NC(=N)N)n1")
"151 to 156 °C"
>>> result("C=C(OC(=O)c1ccc(C(C)(C)C)cc1)c1ccc(OC)cc1")
"87 to 89 °C"
>>> result("CNC(=O)N1CCC(c2nn(-c3ccccc3)c3cc(F)ccc23)CC1")
"163 to 165 °C"
>>> result("Cn1c(C(F)(F)F)cc(=O)n(-c2cc(OC3CCCC3)c(Cl)cc2F)c1=O")
"118 to 120 °C"
>>> result("CCOC(=O)NC(=NCCCc1c[nH]cn1)NCCSCc1cccnc1")
"90 to 91 °C"
>>> result("CNCc1cccc(CN(C)c2nc(=O)c3c(C)c(OC)c(OC)cc3[nH]2)c1")
"179 to 181 °C"
>>> result("CCC(C)(C)N1C(=O)C2(COc3cc4c(cc32)CCO4)c2ccccc21 (stereo not given)")
"128 to 129 °C"
>>> result("CCN(CC)Cc1cc(Nc2ccnc3cc(Cl)ccc23)c2c(c1O)CCCC2")
"215 to 217 °C"
>>> result("O=C(O)C=CCCCCCc1cccc2cncn12")
"110 to 111 °C"

Let's switch to this molecule now.
Query: Consider the molecule shown here: CC(C)(C)N(CC(O)CONC(=O)NC1CCCCC1)C(=O)NC1CCCCC1 (stereo not given) What is its recorded melting point?
Response: 151 to 152 °C

====

What melting point was measured for each of the following?

>>> result("CN1CCN(c2nn(CC3CC3)c3ccccc23)CC1")
"68 to 70 °C"
>>> result("CC(C)Cc1nccc2c(CC(=O)O)cccc12")
"152 °C"
>>> result("COc1cc(OC)nc(NC(=O)NS(=O)(=O)c2ncccc2CSC)n1")
"145 to 147 °C"
>>> result("COC(=O)c1c(C)nc2c(c1N)c1ccccc1n2Cc1ccc(OC)cc1")
"142 to 145 °C"
>>> result("CC(C)c1cc(Oc2ccc(Cl)cc2)nc(C(C)C)c1[N+](=O)[O-]")
"102 to 104 °C"
>>> result("Cc1cc(C(F)F)c2c(n1)C(O)CCC2 (stereo not given)")
"101 to 104 °C"

# map each molecule to its melting point
1. Fc1ccc2c(c1)nc(C(F)(F)C(F)(F)F)n2C1CCNCC1
2. CCOCCOc1ccc(OCC(O)CNCCNC(=O)N2CCOCC2)cc1 (stereo not given)
3. COc1ccc2cc([C@H](C)C(=O)OCCN(CCO[N+](=O)[O-])S(=O)(=O)c3ccc(C)cc3)ccc2c1

Response:
1: 177 to 178 °C; 2: 75 to 77 °C; 3: 92 to 95 °C

Query: Please report the recorded melting point for O=C1Nc2cccnc2N(C(=O)N2CCCCC2CCCCN2CCCCC2)c2ccccc21 (stereo not given) .
Response: 199 to 201 °C

====

Observed Property: melting point

Here's what some known entries look like.
>>> result("NC(=O)CNC(=O)c1ccnc(-c2cccc3cc(COc4cccc(C(F)(F)F)c4)sc23)c1")
"185 to 186 °C"
>>> result("COC(=O)[C@H](CCCCNC(=O)OC(C)(C)C)NC(=O)c1ccccc1")
"108 to 109 °C"
>>> result("NS(=O)(=O)c1ccccc1C(Cl)Cl")
"131 to 132 °C"
>>> result("CC(C)c1nc(CCOC2=CCCc3ccccc32)n(C)c1Sc1cc(Cl)cc(Cl)c1")
"99 to 102 °C"

Query: Need melting point, item FCc1cccc(C#CCCn2ncc(-c3ccc(F)cc3)n2)n1
Response: 84 to 86 °C
